molecular target: Urease subunit alpha/Urease subunit beta (Helicobacter pylori (strain ATCC 700392 / 26695) (Campylobacterpylori)); assay: Substrate inhibition of Helicobacter pylori urease in presence of >4 mM urea by indophenol method; format: protein-complex assay
Sequence (P69996 whole entry): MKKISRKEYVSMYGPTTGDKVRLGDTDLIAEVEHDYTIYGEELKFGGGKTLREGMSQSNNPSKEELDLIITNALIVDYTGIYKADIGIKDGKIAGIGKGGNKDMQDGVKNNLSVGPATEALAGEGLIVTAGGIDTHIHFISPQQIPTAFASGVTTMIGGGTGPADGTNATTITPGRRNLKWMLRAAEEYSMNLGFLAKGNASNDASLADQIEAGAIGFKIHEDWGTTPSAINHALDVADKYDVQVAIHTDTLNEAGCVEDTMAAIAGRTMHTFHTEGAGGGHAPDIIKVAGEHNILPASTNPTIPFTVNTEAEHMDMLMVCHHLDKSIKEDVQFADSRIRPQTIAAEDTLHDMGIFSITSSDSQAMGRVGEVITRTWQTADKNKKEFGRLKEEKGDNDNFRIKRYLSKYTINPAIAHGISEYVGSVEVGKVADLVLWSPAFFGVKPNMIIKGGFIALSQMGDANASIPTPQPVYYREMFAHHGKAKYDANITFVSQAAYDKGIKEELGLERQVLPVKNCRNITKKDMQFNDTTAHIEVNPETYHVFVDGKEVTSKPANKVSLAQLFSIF
Sequence (P14916 whole entry, further chain): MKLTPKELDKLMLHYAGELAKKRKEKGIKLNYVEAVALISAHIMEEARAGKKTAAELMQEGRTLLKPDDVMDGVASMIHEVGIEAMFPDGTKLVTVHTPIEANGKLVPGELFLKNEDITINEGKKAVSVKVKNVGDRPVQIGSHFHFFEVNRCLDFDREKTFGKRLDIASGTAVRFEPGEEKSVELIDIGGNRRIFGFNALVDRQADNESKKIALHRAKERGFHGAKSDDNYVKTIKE
Property name: pKi
Give bare numbers, as −log10 of the molar value.

INPUT: Please give the measured pKi for this molecule: NC(N)=O
OUTPUT: 2.19

###

Hi there, I'd appreciate the recorded pIC50 for every entry that follows.
molecular target: Urease subunit alpha/Urease subunit beta (Helicobacter pylori (strain ATCC 700392 / 26695) (Campylobacterpylori)); assay: Inhibition of Helicobacter pylori urease using urea as substrate assessed as ammonia production after 50 mins by indophenol method
Answers are plain numbers, as −log10 of the molar value.

See these solved cases before continuing.
[[record]]
compound = "CC(=O)NO [ACETOHYDROXAMIC ACID]"
property_name = "pIC50"
measured_value = 4.62

[[record]]
compound = "COc1cc(C(O)CC(=O)N(C)O)ccc1OCc1ccccc1 (stereo not given)"
property_name = "pIC50"
measured_value = 3.59


For each of the items listed, what is its pIC50?
1. COc1ccccc1C(O)CC(=O)N(C)O (stereo not given)
2. CN(O)C(=O)CC(O)c1ccc(Cl)cc1Cl (stereo not given)
3. O=C(CC(O)c1cc(Cl)ccc1O)NO (stereo not given)
4. CN(O)C(=O)CC(O)c1ccc(N(C)C)cc1 (stereo not given)
5. CN(O)C(=O)CC(O)c1cccc(F)c1 (stereo not given)

OUTPUT:
[4.08, 3.44, 5.96, 3.54, 4.15]

For each of the items listed, what is its pIC50?
1. CN(O)C(=O)CC(O)c1ccc(F)cc1 (stereo not given)
2. CN(O)C(=O)CC(O)c1ccccc1Cl (stereo not given)

OUTPUT:
1: 4.11; 2: 4.25
